System: Rat paw edema
Experiment: Rat Paw Edema Assay (carrageenan)
Type: in vivo, Male Sprague-Dawley rats
Details: po, 1 h before subplantar carrageenan (500 μg per paw); paw volume at 3 h
Structures can show the parent of a compound that is named as a salt.

>  <Compound>
Cc1c([C@H](C)C(=O)O)c2cc(Br)ccc2n1Cc1ccc(Br)cc1 [Example 2, sodium salt]

>  <Tgt>
Rat paw edema

>  <Rat paw edema (ED30) / mg/kg>
0.28

$$$$
>  <Compound>
COc1ccc2c(c1)c(C(C)C(=O)O)c(C)n2Cc1ccc(Cl)cc1 (stereo not shown) [MK-555, reference compound]

>  <Tgt>
Rat paw edema

>  <Rat paw edema (ED30) / mg/kg>
3

$$$$
>  <Compound>
Cc1c(C(C)C(=O)[O-])c2cc(Br)ccc2n1Cc1ccc(Br)cc1.[Na+] (racemic)

>  <Tgt>
Rat paw edema

>  <Rat paw edema (ED30) / mg/kg>
0.26

$$$$
>  <Compound>
Cc1c([C@@H](C)C(=O)O)c2cc(Br)ccc2n1Cc1ccc(Br)cc1 [Example 3, sodium salt]

>  <Tgt>
Rat paw edema

>  <Rat paw edema (ED30) / mg/kg>
0.57

$$$$

---

Molecular target: cyclooxygenase-2 (Homo sapiens)
Sequence (P35354 18-604): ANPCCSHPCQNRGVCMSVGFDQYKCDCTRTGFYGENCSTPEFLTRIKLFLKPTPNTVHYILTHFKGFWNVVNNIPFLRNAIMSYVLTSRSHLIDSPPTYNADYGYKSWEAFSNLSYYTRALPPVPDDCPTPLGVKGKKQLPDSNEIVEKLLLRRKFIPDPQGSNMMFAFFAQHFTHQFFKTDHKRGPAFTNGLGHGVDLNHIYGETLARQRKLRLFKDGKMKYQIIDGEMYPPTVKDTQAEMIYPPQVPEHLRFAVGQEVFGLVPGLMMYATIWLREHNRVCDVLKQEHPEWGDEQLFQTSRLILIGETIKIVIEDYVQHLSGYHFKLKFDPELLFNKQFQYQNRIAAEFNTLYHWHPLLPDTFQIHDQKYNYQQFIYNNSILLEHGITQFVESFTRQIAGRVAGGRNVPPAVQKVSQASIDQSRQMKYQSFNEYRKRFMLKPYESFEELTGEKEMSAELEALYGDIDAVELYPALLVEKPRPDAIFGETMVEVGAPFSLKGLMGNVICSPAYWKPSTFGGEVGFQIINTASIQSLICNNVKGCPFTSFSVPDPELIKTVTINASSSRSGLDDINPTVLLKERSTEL
Assay: cell-based
Conditions: human osteosarcoma 143 cells; PGE2 synthesis; 10 μM arachidonic acid; read-out: COX-2 (IC50)
pIC50: −log10 of the molar value. Structures can show the parent of a compound that is named as a salt.

>  <Molecule>
Cc1c([C@H](C)C(=O)O)c2cc(Br)ccc2n1Cc1ccc(Br)cc1 [Example 2, sodium salt]

>  <pIC50>
7.89

$$$$
>  <Molecule>
Cc1c([C@@H](C)C(=O)O)c2cc(Br)ccc2n1Cc1ccc(Br)cc1 [Example 3, sodium salt]

>  <pIC50>
9.00

$$$$
>  <Molecule>
COc1ccc2c(c1)c(C(C)C(=O)O)c(C)n2Cc1ccc(Cl)cc1 (stereo not shown) [MK-555, reference compound]

>  <pIC50>
8.00

$$$$
>  <Molecule>
Cc1c(C(C)C(=O)[O-])c2cc(Br)ccc2n1Cc1ccc(Br)cc1.[Na+] (racemic) [sodium salt]

>  <pIC50>
8.72

$$$$

---

Target: UniProt P23219
Sequence (P23219 24-599): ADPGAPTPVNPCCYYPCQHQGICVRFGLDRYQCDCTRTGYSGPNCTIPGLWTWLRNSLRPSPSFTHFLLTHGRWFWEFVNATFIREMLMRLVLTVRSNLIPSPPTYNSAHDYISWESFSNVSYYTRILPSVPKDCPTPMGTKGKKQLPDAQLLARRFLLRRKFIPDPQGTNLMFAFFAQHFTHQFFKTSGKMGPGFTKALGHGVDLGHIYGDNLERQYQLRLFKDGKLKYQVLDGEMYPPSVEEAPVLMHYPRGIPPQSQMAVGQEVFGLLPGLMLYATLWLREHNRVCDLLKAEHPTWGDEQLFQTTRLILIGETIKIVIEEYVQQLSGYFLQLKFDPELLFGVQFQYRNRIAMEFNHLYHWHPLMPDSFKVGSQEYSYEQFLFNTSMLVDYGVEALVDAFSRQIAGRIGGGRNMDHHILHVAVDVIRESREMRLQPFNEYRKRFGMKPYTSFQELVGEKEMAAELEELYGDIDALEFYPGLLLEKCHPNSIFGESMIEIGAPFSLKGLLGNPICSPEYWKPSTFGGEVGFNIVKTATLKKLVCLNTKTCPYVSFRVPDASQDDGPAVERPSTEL
Experiment: Inhibition of cyclooxygenase activity, whole cell cyclooxygenase assay (COX-1, U-937 cells, PGE2 by radioimmunoassay)
Conditions: human U-937 cells; PGE2 synthesis; 10 μM arachidonic acid
pIC50: −log10 of the molar value. Counter-ions that a name gives are not always drawn.

>  <Compound>
Cc1c(C(C)C(=O)[O-])c2cc(Br)ccc2n1Cc1ccc(Br)cc1.[Na+] (racemic) [sodium salt]

>  <pIC50>
5.00

$$$$
>  <Compound>
Cc1c([C@H](C)C(=O)O)c2cc(Br)ccc2n1Cc1ccc(Br)cc1 [Example 2, sodium salt]

>  <pIC50>
5.96

$$$$
>  <Compound>
COc1ccc2c(c1)c(C(C)C(=O)O)c(C)n2Cc1ccc(Cl)cc1 (stereo not shown) [MK-555, reference compound]

>  <pIC50>
5.00

$$$$
>  <Compound>
Cc1c([C@@H](C)C(=O)O)c2cc(Br)ccc2n1Cc1ccc(Br)cc1 [Example 3, sodium salt]

>  <pIC50>
4.49

$$$$

The measurements presented in this section are drawn from patent US5510368A.
